Examples of compounds with documented melting point follow.

Take a look at these entries with their results.
Cc1ccnc(N2CCN(CCc3c(C)n4c5c(cc(C(O)C(C)C)cc35)CCC4)CC2)c1 (centres undefined): 140 °C
CC(C)Cn1c(CNC(=O)OC(C)(C)C)c(-c2cccc(F)c2)c2cc(C(N)=O)ccc2c1=O: 147 to 149 °C
O=S(=O)(Cc1n[nH]c(-c2cccs2)n1)c1ccccc1: 191 to 193 °C
CCC1CC(=O)C2(C)CCC3c4ccc(OC)cc4CCC3C12 (centres undefined): 125 to 129 °C
CCc1nn(CCCO)c(CC)c1Oc1cc(C#N)cc(C#N)c1: 93 to 95 °C

Item Cc1ccccc1OCC(O)COc1cccc2oc(C(=O)O)cc(=O)c12 (centres undefined) : provide melting point
95 to 97 °C

Report melting point for COCCSc1cc2c(N3CCc4ccc(Cl)cc43)ncnc2cc1Cl
104 to 106 °C

Report melting point, nothing else, for this compound: COc1ccc(C#CC(=Nc2ccc(OC)cc2)N2CCN(Cc3ccccc3)CC2)cc1
161 °C

Please supply the value of reported melting point for the item Cc1nnc2n1-c1ccc(C#C[Si](C)(C)C)cc1C(c1ccccc1)=NC2
229 to 233 °C

---

Reported melting point values are given for each entry in this list.

Examples from the recorded data:
CCCCCOc1ccc(C(=O)Nc2ccc3cc(CN4CCCC4)cnc3c2C)cc1: 155 °C
c1ccc(COc2cccc(-c3nc(COc4ccc(CCCn5ccnc5)cc4)co3)c2)cc1: 112 to 113 °C
CN(C)CCc1cn(Cc2ccccc2)c2ccc(Br)cc12: 49 to 50 °C
C=CCOc1ccc(C(=O)Oc2ccc(O)cc2)cc1: 146 °C

Here is the next item to consider.
Return reported melting point. Input molecule: CCOC(=O)C1=C(C)NC(N=CN(C)C)=C(C(=O)OCC)C1c1cccc([N+](=O)[O-])c1 (stereo not given)
150 °C

---

# Lookup of reported melting point keyed by entry

CC(C)(C)CC(=O)Nc1ccc([N+](=O)[O-])cc1: 192 to 194 °C
CCNc1ccc(-c2nnsc2-c2ccc(NCC)cc2)cc1: 96.5 to 98.5 °C
COc1ccc2c(c1)C(=O)CC21CCCC1: 80 °C
COc1ccc(-c2cc(C(=O)O)c(=O)n(CC3CC3)n2)cc1: 154 to 155 °C
CCS(=O)(=O)Nc1cc(-c2ncnc(C(F)F)c2Cl)c(F)cc1Cl: 138 to 139 °C

Next molecule, please.
Provide melting point value for the following molecule: CC(C)OC(=O)Nc1cccc(O)c1
75 to 77 °C

---

# key: entry, value: melting point
The figure you give is taken to be in °C; do not add the unit.

COc1cccc(CN=C(Cc2ccccc2)N2CC3C(=O)CCC(c4ccccc4)(c4ccccc4)C3C2)c1 (stereo not given): 127

# input for lookup
Supply melting point value. Item: Cc1cc(O)nc(-c2cccc(-c3ccccc3)n2)n1
172

---

Attribute: melting point

Example entries begin here.
CCCCCC(=O)N(NC(=O)c1ccccc1)C(C)(C)C: 117 to 118 °C
CCOC(=O)Cn1c2c(n(Cc3ccccc3)c(=O)c1=O)CCC1=C2C=C(N)CC1: 231 °C
O=C(O)C=Cc1cccc(OCc2nc(-c3ccccc3)c(-c3ccccc3)o2)c1: 145 to 147 °C
COc1cc(C(C)C)ccc1C1(NC(=O)c2ccccc2)C(=O)c2ccccc2C1=O: 106 to 108 °C

Would you kindly look at the next entry?
Report melting point, nothing else, for this compound: CC(=O)Nc1ccc2c(c1)nc(/C=C/c1ccccc1)n2-c1ccccn1
105 to 107 °C

Values from a melting point compilation (Tetko et al.; mined from patent text by program, amines drawn as free bases though some values may be those of a salt)
